Target: Human immunodeficiency virus type 1 integrase (Human immunodeficiency virus 1, UniProt Q7ZJM1)
Sequence (Q7ZJM1 whole entry): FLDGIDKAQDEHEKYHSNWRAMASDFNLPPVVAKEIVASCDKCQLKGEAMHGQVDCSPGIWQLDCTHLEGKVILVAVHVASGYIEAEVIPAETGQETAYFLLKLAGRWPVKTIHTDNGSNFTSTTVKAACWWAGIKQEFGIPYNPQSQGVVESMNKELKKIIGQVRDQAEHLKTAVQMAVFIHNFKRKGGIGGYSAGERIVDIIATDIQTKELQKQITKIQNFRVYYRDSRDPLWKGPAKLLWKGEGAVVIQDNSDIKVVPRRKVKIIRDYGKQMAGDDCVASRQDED
Assay: Allosteric inhibition of [3H]-2-tert-butoxy-2-[2-methyl-4-(p-tolyl)-3-quinolyl]acetic acid binding to HIV1 integrase measured after 1 hr under dark condition by microbeta plate reader method
Decide using Ki alone. Strictly below 2 µM: class 1. Equal to or above 2 µM: class 0.

INSERT INTO results (compound, assigned_class) VALUES
  ('Cc1ccc(Nc2c(C(OC(C)(C)C)C(=O)O)c(C)nc3cc(-c4ccccc4)nn23)cc1 (stereo not drawn)', 'class 0'),
  ('Cc1cccc(-c2c(C(OC(C)(C)C)C(=O)O)c(C)nc3cc(-c4ccccc4)nn23)c1 (stereo not drawn)', 'class 0'),
  ('Cc1nc2cc(-c3ccccc3)nn2c(-c2ccc3c(c2)CCCO3)c1C(OC(C)(C)C)C(=O)O (stereo not drawn)', 'class 1'),
  ('Cc1nc2cc(-c3ccccc3)nn2c(-c2cc(F)c3c(c2C)CCCO3)c1C(OC(C)(C)C)C(=O)O (stereo in doubt; 15)', 'class 0'),
  ('CC(C)(C)OC(C(=O)O)c1ccccc1-c1ccccc1 (stereo not drawn)', 'class 0'),
  ('Cc1ccccc1-c1c(C(OC(C)(C)C)C(=O)O)c(C)nc2cc(-c3ccccc3)nn12 (stereo not drawn)', 'class 0'),
  ('Cc1nc2cc(-c3ccccc3)nn2c(N2CCC(C)(C)CC2)c1C(OC(C)(C)C)C(=O)O (stereo not drawn)', 'class 1'),
  ('Cc1nc2cc(-c3ccccc3)nn2c(N2CCCCCC2)c1C(OC(C)(C)C)C(=O)O (stereo not drawn)', 'class 1'),
  ('COc1cccc(-c2c(C(OC(C)(C)C)C(=O)O)c(C)nc3cc(-c4ccccc4)nn23)c1 (stereo not drawn)', 'class 0'),
  ('Cc1nc2cc(-c3ccccc3)nn2c(C)c1C(OC(C)(C)C)C(=O)O (stereo not drawn)', 'class 0'),
  ('Cc1nc2cc(-c3ccccc3)nn2c(-c2cc(F)c3c(c2C)CCCO3)c1[C@@H](OC(C)(C)C)C(=O)O', 'class 0'),
  ('Cc1nc2cc(-c3ccccc3)nn2c(-c2cc(F)c3c(c2C)CCCO3)c1[C@H](OC(C)(C)C)C(=O)O', 'class 1'),
  ('COc1ccccc1-c1c(C(OC(C)(C)C)C(=O)O)c(C)nc2cc(-c3ccccc3)nn12 (stereo not drawn)', 'class 0'),
  ('COc1ccc(-c2c(C(OC(C)(C)C)C(=O)O)c(C)nc3cc(-c4ccccc4)nn23)cc1 (stereo not drawn)', 'class 1'),
  ('Cc1nc2cc(-c3ccccc3)nn2c(-c2ccccc2)c1C(OC(C)(C)C)C(=O)O (stereo not drawn)', 'class 0'),
  ('Cc1nc2cc(-c3ccccc3)nn2c(-c2cc(F)c3c(c2C)CCCO3)c1C(OC(C)(C)C)C(=O)O (racemic)', 'class 1');
